# Assay target: T1, 4H675-AA
# T1 chain: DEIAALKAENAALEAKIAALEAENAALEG
# Assay info: two-hybrid library CCmax;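 note: natural log of median RNA to DNA barcode read ratio; higher means stronger binding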
# Run conditions: mean of both orientations
Parameter measured: interaction score

// each binder listed below needs its interaction score
1. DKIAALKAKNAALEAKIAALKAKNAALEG [4H2991-AA]
2. DKNAALKAEIAALEAKIAALKAENAALKG [4H3628-AA]
3. DKNAALEAEIAALEAENAALKAKIAALKG [4H3102-AA]
4. DKNAALEAKIAALKAKNAALEAKIAALKG [4H3446-AA]
5. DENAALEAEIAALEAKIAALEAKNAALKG [4H1064-AA]

[A]
-0.186
-1.51
-0.00286
-0.821
-1.16
